Origin of values: patent US20060122108A1

Could you please report measured percentage of binding for the items listed next?
Molecular target: BSA (UniProt P02769)
Sequence (P02769 25-607 limits assumed): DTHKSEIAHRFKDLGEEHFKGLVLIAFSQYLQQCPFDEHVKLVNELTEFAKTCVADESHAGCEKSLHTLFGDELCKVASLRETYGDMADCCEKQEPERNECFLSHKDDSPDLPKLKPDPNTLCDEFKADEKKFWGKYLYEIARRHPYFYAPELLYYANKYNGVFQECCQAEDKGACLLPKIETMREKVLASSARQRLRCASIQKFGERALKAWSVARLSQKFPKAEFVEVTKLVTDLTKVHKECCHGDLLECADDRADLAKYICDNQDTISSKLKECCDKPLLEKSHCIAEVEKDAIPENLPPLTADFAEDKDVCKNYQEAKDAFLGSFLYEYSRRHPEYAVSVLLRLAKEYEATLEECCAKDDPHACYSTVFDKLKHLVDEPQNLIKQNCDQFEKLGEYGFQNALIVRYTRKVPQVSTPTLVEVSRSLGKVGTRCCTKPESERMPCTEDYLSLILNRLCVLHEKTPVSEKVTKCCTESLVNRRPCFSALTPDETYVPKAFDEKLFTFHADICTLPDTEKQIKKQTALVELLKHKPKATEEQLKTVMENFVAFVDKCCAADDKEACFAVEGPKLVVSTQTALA
Assay: phage ELISA, control well (BSA blocking solution only); phage 1 ng/well; 100% = SEQ 5 phage at 710 ng/well
Answers are plain numbers, in %.

## Input Entry under review: LWQPPLIPGIDF (peptide, not shown: large carriers) [phage presenting SEQ ID NO: 2 (…)] . Reported percentage of binding?
## Output 1

## Input Entry under review: QIEPWFTPEDFP (peptide, not shown: large carriers) [phage presenting SEQ ID NO: 3 (…)] . Reported percentage of binding?
## Output 0

## Input Entry under review: TRLAPLVFPLDY (peptide, not shown: large carriers) [phage presenting SEQ ID NO: 4 (…)] . Reported percentage of binding?
## Output 0

Please turn your attention to the following entry.
## Input Entry under review: SWLQMPWALVRT (peptide, not shown: large carriers) [phage presenting SEQ ID NO: 5 (…)] . Reported percentage of binding?
## Output 0
